Below, each of the compounds is paired with its reported Ki value.
- EXPERIMENTAL_TARGET: 5-hydroxytryptamine receptor 7 (Cavia porcellus)
- Sequence (P50407 whole entry): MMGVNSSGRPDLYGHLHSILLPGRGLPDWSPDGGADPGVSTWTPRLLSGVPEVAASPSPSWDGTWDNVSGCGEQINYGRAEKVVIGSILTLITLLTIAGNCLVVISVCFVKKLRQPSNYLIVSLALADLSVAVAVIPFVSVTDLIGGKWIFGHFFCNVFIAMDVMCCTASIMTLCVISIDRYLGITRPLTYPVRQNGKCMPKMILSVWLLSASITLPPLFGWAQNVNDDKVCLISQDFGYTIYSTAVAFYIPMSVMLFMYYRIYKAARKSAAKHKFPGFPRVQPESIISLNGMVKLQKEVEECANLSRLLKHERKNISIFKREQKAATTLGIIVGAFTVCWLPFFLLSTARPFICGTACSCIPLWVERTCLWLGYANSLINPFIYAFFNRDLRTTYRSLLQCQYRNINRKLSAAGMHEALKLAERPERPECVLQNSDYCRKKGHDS
Provide only the numeric value, understood in pM.

Answered examples (2):
* CN1C[C@H](CNC(=O)OCc2ccccc2)C[C@@H]2c3cccc4c3c(cn4C)C[C@H]21 | 1580
* CC(C)NCC(O)COc1cccc2[nH]ccc12 (stereo not drawn) | 501000

Assay 5-hydroxytryptamine receptor 7 (Cavia porcellus), sample CNS(=O)(=O)Cc1ccc2[nH]cc(CCN(C)C)c2c1 , Ki read: 100000

Assay 5-hydroxytryptamine receptor 7 (Cavia porcellus), sample CN1C[C@@H](NS(=O)(=O)N(C)C)C[C@@H]2c3cccc4c3c(cn4C)C[C@H]21 , Ki read: 12600

Assay 5-hydroxytryptamine receptor 7 (Cavia porcellus), sample Cc1nc2n(c(=O)c1CCN1CCC(c3noc4cc(F)ccc34)CC1)CCCC2 , Ki read: 400

Assay 5-hydroxytryptamine receptor 7 (Cavia porcellus), sample NCCc1c[nH]c2ccc(O)cc12 [[3H]-5-HT] , Ki read: 100

Assay 5-hydroxytryptamine receptor 7 (Cavia porcellus), sample CCN(CC)C(=O)[C@@H]1C=C2c3cccc4[nH]cc(c34)C[C@H]2N(C)C1 , Ki read: 400

Assay 5-hydroxytryptamine receptor 7 (Cavia porcellus), sample COc1ccc2[nH]cc(CCN)c2c1 , Ki read: 250

====

Let's go through some Ki measurements on 5-hydroxytryptamine receptor 7 (Rattus norvegicus) together.
Sequence (P32305 whole entry): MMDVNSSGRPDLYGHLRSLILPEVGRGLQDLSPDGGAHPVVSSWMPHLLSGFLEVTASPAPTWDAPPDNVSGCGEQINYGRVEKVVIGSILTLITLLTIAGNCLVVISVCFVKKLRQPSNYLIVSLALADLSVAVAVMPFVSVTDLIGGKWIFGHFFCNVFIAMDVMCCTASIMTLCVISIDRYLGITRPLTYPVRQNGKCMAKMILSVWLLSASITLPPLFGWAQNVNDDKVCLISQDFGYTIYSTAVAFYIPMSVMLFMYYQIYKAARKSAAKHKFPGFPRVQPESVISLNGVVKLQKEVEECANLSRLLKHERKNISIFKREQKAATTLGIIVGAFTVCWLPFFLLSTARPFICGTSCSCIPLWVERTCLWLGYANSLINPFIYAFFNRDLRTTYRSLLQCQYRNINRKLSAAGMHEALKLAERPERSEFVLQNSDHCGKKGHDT

Answered examples (3):
• CN1C[C@H](CNC(=O)OCc2ccccc2)C[C@@H]2c3cccc4c3c(cn4C)C[C@H]21 = 10 nM
• CNS(=O)(=O)Cc1ccc2[nH]cc(CCN(C)C)c2c1 = 25.1 nM
• CN1C[C@@H](NS(=O)(=O)N(C)C)C[C@@H]2c3cccc4c3c(cn4C)C[C@H]21 = 10 nM

Notebook: CC(C)NCC(O)COc1cccc2[nH]ccc12 (centres undefined) , Ki read as > 10000 nM
